# credit: PubChem BioAssay AID652126

# Test system: Nuclear hormone receptor DAF-12 (Strongyloides stercoralis)
# assay: S. stercoralis DAF-12 nuclear receptor activators, primary screen, cell-based, luminescence, HEK293, GRIP1 co-expression, lit1-tk-luc (AID 652126);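 note: 0% = DMSO-only wells and 100% = 3 µM delta7-dafachronic acid wells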
# experimental.setup: HEK293 ssDAF-12/GRIP1 lit1-tk-luc reporter, at 6.8 µM, hits give high values, % of 3 µM dafachronic acid response
About 3,700 (1%) of roughly 370,000 compounds were called active. For the sample, actives were picked, then their nearest neighbours and some compounds at random.
Quick reference for activation among some compounds
Reply with just the number (in %).

Example compounds with recorded activation:
According to the records, this compound CCOC(=O)/C=C/c1ccccc1O displays activation of -1.38

Value of measured activation for the entry COc1ccc(C(=O)O)cc1S(=O)(=O)NC1CCN(Cc2ccccc2)CC1 : -1.42

// activation lookup, compound = CN(C)CC(=O)N[C@@H]1C[C@@H]2O[C@H](CO)CC[C@@H]2O[C@@H]1CCc1ccc(C#Cc2ccccc2)cc1 , result: -1.63

activation reading for COc1ccc(-n2c(SCC(=O)Nc3ccc4cn[nH]c4c3)nnc2-c2cccnc2)cc1 : -1.16

Others:
GET /value?item= N#CCC[C@H]1CC[C@]2(CCCN(Cc3ccc(Cl)cc3)C2)O1 &field=activation returns -1.32

====

# Test system: Nuclear hormone receptor DAF-12 (Strongyloides stercoralis)
# assay: S. stercoralis DAF-12 nuclear receptor activators, primary screen, cell-based, luminescence, HEK293, GRIP1 co-expression, lit1-tk-luc (AID 652126);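 note: 0% = DMSO-only wells and 100% = 3 µM delta7-dafachronic acid wells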
# experimental.setup: HEK293 ssDAF-12/GRIP1 lit1-tk-luc reporter, at 6.8 µM, % of 3 µM dafachronic acid response
In all, about 370,000 compounds went through this assay and about 3,700 (1%) were called active.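 The calls were made as follows: active = activation above the mean over all tested compounds plus 3 SD (cut at about 0.9% in these data); inactive = the rest.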 The sample as a whole holds a higher share of actives than the screen did.
Please reply with one of these outcomes: true (1) = active, false (0) = inactive

Here are 5 molecules together with their reported answers.
input: Per the records of this test, what outcome belongs to CCOC(=O)c1c(CC(C)C)csc1/N=C/C1=C(O)CCCC1=O ?
output: false (0)

input: What outcome does the record of this test show for COc1ccc(Cn2cc(COC(=O)N(C)Cc3ccccc3)nn2)cc1 ?
output: false (0)

input: Could you please tell me the result logged for Cc1cc(NC(=O)CSCC(=O)NC(C)c2ccccc2)no1 (configuration not stated) in this assay?
output: false (0)

input: Name the outcome recorded for CC(=O)C1(C(=O)Nc2nccs2)CC(c2ccccc2C(F)(F)F)=NO1 (configuration not stated) in the assay.
output: false (0)

input: Name the outcome recorded for N#Cc1ccccc1OC[C@@H](O)CN1CCC(C(O)(c2ccccc2)c2ccccc2)CC1 in the assay.
output: false (0)

Next:
input: Which outcome was entered for the molecule O=C(O)CC(Cc1ccccc1)C(=O)Nc1ccc([N+](=O)[O-])cc1 (configuration not stated) in this test?
output: false (0)

input: Status in this test for COc1ccc(-c2cc(C(=O)NC(Cc3c[nH]c4ccccc34)C(=O)O)c(C)o2)cc1OC (configuration not stated) ?
output: true (1)

input: Dear all, I need the recorded test outcome for Cc1ccc(CCNC(=O)c2ccc3nc4ccccc4c(=O)n3c2)cc1 , thank you.
output: false (0)

input: How was COCC(=O)N[C@@H]1C[C@@H]2O[C@@H](CO)CC[C@@H]2O[C@@H]1CCc1ccc(-c2ccccc2)cc1 classified in this test?
output: false (0)

input: Could you kindly confirm the outcome this assay logged for COc1ccc(-n2c(COc3ccccc3)nnc2SCC(=O)Nc2ccc3c(c2)OCO3)cc1 ?
output: false (0)
